Assay: Pharmacokinetics study of KPT-335 in cats (i.v. injection, p.o. capsules and tablets; UPLC-MS/MS, non-compartmental analysis)
Assay type: in vivo
Settings: both sexes, plasma, po, 2 mg/kg, cats, p.o., Tablet, Feeding, 2 mg/kg BW; read-out: Lambda_z (converted)
RECORDED_METRIC: k el (s⁻¹)

{"COMPOUND": "O=C(/C=C\\n1cnc(-c2cc(C(F)(F)F)cc(C(F)(F)F)c2)n1)NNc1ccccn1 [KPT-335]", "ASSAY_RESULT": "5.83e-05"}

---

Experiment: Pharmacokinetics study of KPT-335 in cats (i.v. injection, p.o. capsules and tablets; UPLC-MS/MS, non-compartmental analysis)
Assay type: in vivo
Settings: both sexes, cat, plasma, po, 1 mg/kg, cats, capsule p.o. 1 mg/kg BW, 1 h, individual cats 1-6; read-out: Plasma concentration
RECORDED_METRIC: concentration at 1 h

{"GIVEN_SMILES": "O=C(/C=C\\n1cnc(-c2cc(C(F)(F)F)cc(C(F)(F)F)c2)n1)NNc1ccccn1", "ASSAY_RESULT": "161 ng/mL"}
